Values from the supplement of paper PMC11061612

- System: PEO1 (Ovarian Carcinoma)
- test: Bliss excess, mean over the matrix (fraction); higher = more synergy;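 also: after 72 h of two-drug dosing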
We use -0.01 as the dividing line for Bliss excess: on or above the line is TRUE, below is FALSE.

compound	classification
NC1(C(=O)N[C@@H](CCO)c2ccc(Cl)cc2)CCN(c2ncnc3[nH]ccc23)CC1 [Capivasertib] + CCN(CCO)CCCOc1ccc2c(Nc3cc(CC(=O)Nc4cccc(F)c4)[nH]n3)ncnc2c1 [AZD2811] (first compound max 10 µM, 7x7, partner max 1 µM)	FALSE

Threshold query (Bliss excess >= -0.01) on C[C@@H](c1ccc2nccn2c1)n1nnc2ncc(-c3cnn(C)c3)nc21 [Savolitinib] + Cc1c2c(nn1C)CSCc1cc(n(C)n1)CSc1cc(c3ccccc3c1)OCCCc1c(C(=O)O)n(C)c3c-2c(Cl)ccc13 [AZD5991] (first compound max 1 µM, 7x7, partner max 1 µM)
FALSE

Threshold query (Bliss excess >= -0.01) on CC1(C)CCC(CN2CCN(c3ccc(C(=O)NS(=O)(=O)c4ccc(NCC5CCOCC5)c([N+](=O)[O-])c4)c(Oc4cnc5[nH]ccc5c4)c3)CC2)=C(c2ccc(Cl)cc2)C1 [Venetoclax] + Cn1cnc2c(F)c(Nc3ccc(Br)cc3Cl)c(C(=O)NOCCO)cc21 [Selumetinib] (first compound max 1 µM, 7x7, partner max 3 µM)
FALSE

Threshold query (Bliss excess >= -0.01) on N#Cc1cnc(Nc2cc(NC[C@H]3CNCCO3)c(C(F)(F)F)cn2)cn1 [SRA737] + C=CCn1c(=O)c2cnc(Nc3ccc(N4CCN(C)CC4)cc3)nc2n1-c1cccc(C(C)(C)O)n1 [AZD1775] (first compound max 10 µM, partner max 1 µM)
FALSE

Threshold query (Bliss excess >= -0.01) on CS(=O)(=O)CCNCc1ccc(-c2ccc3ncnc(Nc4ccc(OCc5cccc(F)c5)c(Cl)c4)c3c2)o1 [Lapatinib] + C[C@@H](Oc1cc(-c2cnn(C3CCNCC3)c2)cnc1N)c1c(Cl)ccc(F)c1Cl [Crizotinib] (first compound max 10 µM, 7x7, partner max 10 µM)
FALSE

Threshold query (Bliss excess >= -0.01) on O=C(c1cc(Cc2n[nH]c(=O)c3ccccc23)ccc1F)N1CCN(C(=O)C2CC2)CC1 [Olaparib] + COc1nnc2ccc(N3CCC(c4ccc(OCCN5CCN(C)C(=O)[C@H]5C)cc4)CC3)nn12 [AZD5153] (first compound max 10 µM, 7x7, partner max 1 µM)
FALSE

---

- System: A204 (Rhabdomyosarcoma)
- test: Bliss excess, mean over the matrix (fraction); higher = more synergy
Below is a list of entries, each paired with its recorded Bliss excess value.
The response must contain the number and no unit.

Observe how each entry below is paired with its result.
compound	Bliss excess
NC1(C(=O)N[C@@H](CCO)c2ccc(Cl)cc2)CCN(c2ncnc3[nH]ccc23)CC1 [Capivasertib] + COc1nnc2ccc(N3CCC(c4ccc(OCCN5CCN(C)C(=O)[C@H]5C)cc4)CC3)nn12 [AZD5153] (first compound max 10 µM, 7x7, partner max 1 µM)	0.006
CC1(C)CCC(CN2CCN(c3ccc(C(=O)NS(=O)(=O)c4ccc(NCC5CCOCC5)c([N+](=O)[O-])c4)c(Oc4cnc5[nH]ccc5c4)c3)CC2)=C(c2ccc(Cl)cc2)C1 [Venetoclax] + C[C@@H]1COCCN1C2=NC(=NC(=C2)C3(CC3)[S@](=N)(=O)C)C4=C5C=CNC5=NC=C4 [AZD6738] (first compound max 1 µM, 7x7, partner max 10 µM)	-0.0355

Let us examine a further case.
Reported Bliss excess for CC1(C)CCC(CN2CCN(c3ccc(C(=O)NS(=O)(=O)c4ccc(NCC5CCOCC5)c([N+](=O)[O-])c4)c(Oc4cnc5[nH]ccc5c4)c3)CC2)=C(c2ccc(Cl)cc2)C1 [Venetoclax] + C[C@@H](Nc1cc(F)cc(F)c1)c1cc(C(=O)N(C)C)cc2c(=O)cc(N3CCOCC3)oc12 [AZD8186] (first compound max 1 µM, 7x7, partner max 3 µM) was -0.0152

---

- System: UACC-812 (Breast Carcinoma)
- test: Bliss excess, mean over the matrix (fraction); higher = more synergy
metricName: Bliss excess
The response must contain the number and no unit.

Reported Bliss excess for CN(CCO)CC[C@H](CSc1ccccc1)Nc1ccc(S(=O)(=O)NC(=O)c2ccc(N3CCC([C@@H](O)c4ccccc4-c4ccc(Cl)cc4)CC3)cc2)cc1S(=O)(=O)C(F)(F)F [AZD4320] + CC(=O)O[C@H]1C(=O)[C@@]2(C)[C@H]([C@H](OC(=O)c3ccccc3)[C@]3(O)C[C@H](OC(=O)[C@H](O)[C@@H](NC(=O)c4ccccc4)c4ccccc4)C(C)=C1C3(C)C)[C@]1(OC(C)=O)CO[C@@H]1C[C@@H]2O [Paclitaxel] (first compound max 1 µM, 7x7, partner max 3 µM) was 0.0887

---

Below is a list of entries, each paired with its recorded Bliss excess value.
- Tested on: JHH-2 (Hepatocellular Carcinoma)
- test: Bliss excess, mean over the matrix (fraction); higher = more synergy
The response must contain the number and no unit.

Observe how each entry below is paired with its result.
compound	measurement
C=CCn1c(=O)c2cnc(Nc3ccc(N4CCN(C)CC4)cc3)nc2n1-c1cccc(C(C)(C)O)n1 [AZD1775] + O=C(c1cc(Cc2n[nH]c(=O)c3ccccc23)ccc1F)N1CCN(C(=O)C2CC2)CC1 [Olaparib] (first compound max 1 µM, partner max 10 µM)	-0.0609
C[C@@H](Nc1cc(F)cc(F)c1)c1cc(C(=O)N(C)C)cc2c(=O)cc(N3CCOCC3)oc12 [AZD8186] + CC(=O)c1c(C)c2cnc(Nc3ccc(N4CCNCC4)cn3)nc2n(C2CCCC2)c1=O [Palbociclib] (first compound max 10 µM, 7x7, partner max 10 µM)	-0.0282
Cc1c2c(nn1C)CSCc1cc(n(C)n1)CSc1cc(c3ccccc3c1)OCCCc1c(C(=O)O)n(C)c3c-2c(Cl)ccc13 [AZD5991] + C1CN(CCC1(C(=O)N[C@@H](CCO)C2=CC=C(C=C2)Cl)N)C3=NC=NC4=C3C=CN4 [Capivasertib] (first compound max 1 µM, 7x7, partner max 3 µM)	0.0621
COc1nnc2ccc(N3CCC(c4ccc(OCCN5CCN(C)C(=O)[C@H]5C)cc4)CC3)nn12 [AZD5153] + C=CCn1c(=O)c2cnc(Nc3ccc(N4CCN(C)CC4)cc3)nc2n1-c1cccc(C(C)(C)O)n1 [AZD1775] (first compound max 1 µM, partner max 1 µM)	-0.1
Cc1c2c(nn1C)CSCc1cc(n(C)n1)CSc1cc(c3ccccc3c1)OCCCc1c(C(=O)O)n(C)c3c-2c(Cl)ccc13 [AZD5991] + CCN(CCO)CCCOc1ccc2c(Nc3cc(CC(=O)Nc4cccc(F)c4)[nH]n3)ncnc2c1 [AZD2811] (first compound max 1 µM, 7x7, partner max 1 µM)	-0.0213

Reported Bliss excess for CC(=O)c1c(C)c2cnc(Nc3ccc(N4CCNCC4)cn3)nc2n(C2CCCC2)c1=O [Palbociclib] + CC1(C)CCC(CN2CCN(c3ccc(C(=O)NS(=O)(=O)c4ccc(NCC5CCOCC5)c([N+](=O)[O-])c4)c(Oc4cnc5[nH]ccc5c4)c3)CC2)=C(c2ccc(Cl)cc2)C1 [Venetoclax] (first compound max 10 µM, 7x7, partner max 1 µM) was 0.0031

Reported Bliss excess for COc1cc2c(cc1OCCCCCOc1cc3c(cc1OC)C(=O)N1C=C(C)C[C@H]1C=N3)N=C[C@@H]1CC(C)=CN1C2=O [SG3199] + O=C(c1cc(Cc2n[nH]c(=O)c3ccccc23)ccc1F)N1CCN(C(=O)C2CC2)CC1 [Olaparib] (first compound max 0.001 µM, 7x7, partner max 10 µM) was -0.0244

---

- Tested on: NCI-H2228 (Lung Adenocarcinoma)
- test: Bliss excess, mean over the matrix (fraction); higher = more synergy
Below is a list of entries, each paired with its recorded Bliss excess value.
The response must contain the number and no unit.

Observe how each entry below is paired with its result.
compound	Bliss excess
COc1cccc(OCCCN)c1-c1cc(Nc2cnc(C#N)cn2)n[nH]1 [Prexasertib] + O=C(c1cc(Cc2n[nH]c(=O)c3ccccc23)ccc1F)N1CCN(C(=O)C2CC2)CC1 [Olaparib] (first compound max 1 µM, 7x7, partner max 10 µM)	-0.0834
CCN(CCO)CCCOc1ccc2c(Nc3cc(CC(=O)Nc4cccc(F)c4)[nH]n3)ncnc2c1 [AZD2811] + C[C@@H]1COCCN1C2=NC(=NC(=C2)C3(CC3)[S@](=N)(=O)C)C4=C5C=CNC5=NC=C4 [AZD6738] (first compound max 1 µM, 7x7, partner max 10 µM)	-0.0184

Reported Bliss excess for CN(CCO)CC[C@H](CSc1ccccc1)Nc1ccc(S(=O)(=O)NC(=O)c2ccc(N3CCC([C@@H](O)c4ccccc4-c4ccc(Cl)cc4)CC3)cc2)cc1S(=O)(=O)C(F)(F)F [AZD4320] + CN(C)CCCOc1ccc(-c2ccc3ncc4c(c3c2)n(C2CCOCC2)c(=O)n4C)cn1 [AZD0156] (first compound max 1 µM, 7x7, partner max 1 µM) was -0.0225

Reported Bliss excess for Cn1cnc2c(F)c(Nc3ccc(Br)cc3Cl)c(C(=O)NOCCO)cc21 [Selumetinib] + C=CCn1c(=O)c2cnc(Nc3ccc(N4CCN(C)CC4)cc3)nc2n1-c1cccc(C(C)(C)O)n1 [AZD1775] (first compound max 10 µM, partner max 1 µM) was -0.0613

Reported Bliss excess for CN(CCO)CC[C@H](CSc1ccccc1)Nc1ccc(S(=O)(=O)NC(=O)c2ccc(N3CCC([C@@H](O)c4ccccc4-c4ccc(Cl)cc4)CC3)cc2)cc1S(=O)(=O)C(F)(F)F [AZD4320] + C1CN(CCC1(C(=O)N[C@@H](CCO)C2=CC=C(C=C2)Cl)N)C3=NC=NC4=C3C=CN4 [Capivasertib] (first compound max 1 µM, 7x7, partner max 3 µM) was -0.0392

Reported Bliss excess for CC1(C)CCC(CN2CCN(c3ccc(C(=O)NS(=O)(=O)c4ccc(NCC5CCOCC5)c([N+](=O)[O-])c4)c(Oc4cnc5[nH]ccc5c4)c3)CC2)=C(c2ccc(Cl)cc2)C1 [Venetoclax] + CCN(CCO)CCCOc1ccc2c(Nc3cc(CC(=O)Nc4cccc(F)c4)[nH]n3)ncnc2c1 [AZD2811] (first compound max 1 µM, 7x7, partner max 1 µM) was -0.039

Reported Bliss excess for NC1(C(=O)N[C@@H](CCO)c2ccc(Cl)cc2)CCN(c2ncnc3[nH]ccc23)CC1 [Capivasertib] + CC(=O)c1c(C)c2cnc(Nc3ccc(N4CCNCC4)cn3)nc2n(C2CCCC2)c1=O [Palbociclib] (first compound max 10 µM, 7x7, partner max 10 µM) was -0.0216
